PROTOCOL: chemical genetic growth profiling, strain panel (AID 1159580);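 also: tested at 20 µM; growth read once vehicle control cultures reached saturation at 30 °C; 1 = growth at the plate median or of vehicle wells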
ASSAY_CONTEXT: S. cerevisiae deletion strains, growth OD, locus YCL029C, strain bik1, stronger effect = lower value
The campaign covered roughly 5,500 compounds. About 2,000 (36%) were called active. About 18% were inconclusive and are not listed. Some of the results follow.
Readings of normalized growth for the listed compounds
ATTRIBUTE_MEASURED: normalized growth

| COMPOUND | REPORTED |
| --- | --- |
| CCOC(=O)c1c(C)cc(O)c(C)c1O | 0.955 (inactive) |
| CCC(=O)O[C@H]1[C@H](O[C@@H]2[C@@H](C)[C@H](O[C@H]3C[C@@](C)(OC)[C@@H](O)[C@H](C)O3)[C@@H](C)C(=O)O[C@H](CC)[C@@](C)(O)[C@H](O)[C@@H](C)C(=O)[C@H](C)C[C@@]2(C)O)O[C@H](C)C[C@@H]1N(C)C | 0.988 (inactive) |
| CC1=C(/C=C/C(C)=C/C=C/C(C)=C/C=C/C=C(C)/C=C/C=C(C)/C=C/C2=C(C)C(=O)C(O)CC2(C)C)C(C)(C)CC(O)C1=O (stereo not drawn) | 0.973 (inactive) |
| CNC(C)[C@H](O)c1ccccc1 (stereo partly drawn) | 1 (inactive) |
| CC1=C(/C=C/C(C)=C/C=C/C(C)=C/C=C/C=C(C)/C=C/C=C(C)/C=C/C23OC2(C)CC(O)CC3(C)C)C(C)(C)CC(O)C1 (stereo not drawn) | 1.02 (inactive) |
| CN[C@@H](C)[C@@H](O)c1ccccc1 | 0.976 (inactive) |
| CC(NCCc1ccc(O)cc1)C(O)c1ccc(O)cc1 (stereo not drawn) | 0.977 (inactive) |
| CN1CCCN=C1COC(=O)C(O)(c1ccccc1)C1CCCCC1 (stereo not drawn) | 0.99 (inactive) |

====

PROTOCOL: chemical genetic growth profiling, strain panel (AID 1159580);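 also: tested at 20 µM; growth read once vehicle control cultures reached saturation at 30 °C; 1 = growth at the plate median or of vehicle wells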
ASSAY_CONTEXT: S. cerevisiae deletion strains, growth OD, locus YMR125W, strain sto1
In all, about 5,500 compounds went through this assay and about 2,000 (36%) were called active. Roughly 18% stayed inconclusive and do not appear here. No stated cut-off is given here; in the data, active means normalized growth mostly below about 0.91 (no sharp cut-off); inconclusive means no clear call, values can overlap the other calls; inactive means mostly above about 0.92. The list shows a part of the results.
Classes used: active, inactive

| COMPOUND | CLASS_ASSIGNMENT |
| --- | --- |
| CCC(=O)O[C@H]1[C@H](O[C@@H]2[C@@H](C)[C@H](O[C@H]3C[C@@](C)(OC)[C@@H](O)[C@H](C)O3)[C@@H](C)C(=O)O[C@H](CC)[C@@](C)(O)[C@H](O)[C@@H](C)C(=O)[C@H](C)C[C@@]2(C)O)O[C@H](C)C[C@@H]1N(C)C | active |
| O=C(O)c1c2ccccc2cc2ccccc12 | inactive |
| Oc1cc(Cl)ccc1Oc1ccc(Cl)cc1Cl | active |
| CCOC(=O)C(Cc1ccc(O)cc1)NC(C)=O (stereo not given) | inactive |
| O=C(O)c1cc2ccccc2c(Cc2c(O)c(C(=O)O)cc3ccccc23)c1O | inactive |

====

PROTOCOL: chemical genetic growth profiling, strain panel (AID 1159580);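 also: tested at 20 µM; growth read once vehicle control cultures reached saturation at 30 °C; 1 = growth at the plate median or of vehicle wells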
ASSAY_CONTEXT: S. cerevisiae deletion strains, growth OD, locus YNL071W, strain lat1, stronger effect = lower value
In all, about 5,500 compounds went through this assay and about 2,000 (36%) were called active. Not shown: some 18% with an inconclusive outcome. The list shows a part of the results.

| COMPOUND | normalized growth |
| --- | --- |
| CC(C)(O)[C@@H]1[C@H]2OC(=O)[C@@H]1[C@]1(O)C[C@H]3O[C@]34C(=O)O[C@H]2[C@]14C | 1.01 |
| CC1(C)OC(=O)NC1=O | 1 |
| COc1cc(O)c(C(=O)/C=C/c2ccccc2)c(OC)c1 | 0.503 |
| CC(NCCc1ccc(O)cc1)C(O)c1ccc(O)cc1 (configuration not stated) | 0.993 |
| S=c1nc[nH]c2nc[nH]c12 | 1 |
| CCN(CC)CCCC(C)Nc1ccnc2cc(Cl)ccc12 (configuration not stated) | 1 |
| CC(C(=O)O)c1cccc(C(=O)c2ccccc2)c1 (configuration not stated) | 0.997 |
| CNC(C)[C@H](O)c1ccccc1 (some centres not stated) | 0.991 |
| CN[C@@H](C)[C@@H](O)c1ccccc1 | 1.01 |
| CN1CCc2cc3c(cc2[C@H]1C1OC(=O)c2c1ccc1c2OCO1)OCO3 (some centres not stated) | 0.989 |
| CCN(CCO)CCCC(C)Nc1ccnc2cc(Cl)ccc12 (configuration not stated) | 1 |
| COc1cc(O)c(C(=O)/C=C/c2ccc(OC)c(O)c2)c(OC)c1 | 0.566 |

Source listed as PubChem BioAssay AID1159580.
